Provenance of the data: paper PMC6009911

Molecular target: CYP2A6 (Homo sapiens)
Sequence (P11509 whole entry): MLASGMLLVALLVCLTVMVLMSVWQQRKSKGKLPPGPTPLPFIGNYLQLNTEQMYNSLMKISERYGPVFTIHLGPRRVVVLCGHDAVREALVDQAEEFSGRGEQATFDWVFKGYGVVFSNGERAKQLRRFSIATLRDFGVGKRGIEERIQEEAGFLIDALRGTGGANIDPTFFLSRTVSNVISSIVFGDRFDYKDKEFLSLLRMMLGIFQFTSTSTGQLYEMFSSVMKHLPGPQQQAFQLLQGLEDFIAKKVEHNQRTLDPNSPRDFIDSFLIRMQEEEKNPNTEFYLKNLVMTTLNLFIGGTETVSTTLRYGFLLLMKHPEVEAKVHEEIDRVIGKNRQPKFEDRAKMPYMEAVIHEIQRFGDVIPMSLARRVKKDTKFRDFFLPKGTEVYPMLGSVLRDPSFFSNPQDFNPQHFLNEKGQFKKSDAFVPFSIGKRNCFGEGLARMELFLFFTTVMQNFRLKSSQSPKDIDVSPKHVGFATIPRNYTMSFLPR
Test: Effects of trapping agents and dialysis on inactivation of CYP2A6
Format: biochemical
Parameters: made in house
Conditions: CYP2A6 inhibition reaction mixture, probe coumarin, compound 5 µM, read-out: Per cent remaining activity, Dialysis (+) NADPH
Measured Property: activity at 5 µM (%)
Output spec: scalar in %, unitless text.

What the record says about CC#CC#Cc1ccc(C#CC(O)COC(C)=O)s1 (stereo not drawn) : activity at 5 µM is 20.1

What the record says about CC#Cc1ccc(C#CC#CC(O)COC(C)=O)s1 (stereo not drawn) : activity at 5 µM is 23.7

What the record says about CC#Cc1ccc(C#CC#CC(O)CO)s1 (stereo not drawn) : activity at 5 µM is 10.1

----------
Biological target: CYP2A13 (Homo sapiens, UniProt Q16696)
Construct: made in house
Assay: Effects of trapping agents and dialysis on inactivation of CYP2A13
Format: biochemical
Settings: CYP2A13 inhibition reaction mixture, probe coumarin, compound 20 µM, read-out: Per cent remaining activity, 70 μM K3Fe(CN)6
Measured Property: activity at 20 µM (%)
Output spec: scalar in %, unitless text.

What the record says about CC(=O)OCC1=C2/C(=C\C3(C)CCC(O)(O3)C(C)CC2OC(=O)/C(C)=C/CO)OC1=O (stereo not shown) [Hirsutinolide 8] : activity at 20 µM is 21.8

----------
Biological target: CYP2A13 (Homo sapiens, UniProt Q16696)
Construct: made in house
Assay: Inhibition of CYP2A13-mediated coumarin 7-hydroxylation, enzymatic reconstitution assay
Type: biochemical
Conditions: 10-min pre-incubation in the presence of NADPH; read-out: IC50 CYP2A13 Pre-incubation
Method: Inhibitory effect of plant extracts, fractions, subfractions and constituents was determined by inhibition assay on CYP2A6- and CYP2A13-mediated coumarin 7-hydroxylation. The recombinant human CYP2A6, CYP2A13 and rat NADPH-dependent cytochrome P450 oxidoreductase (CYPOR) proteins were expressed, purified, according to the methods previously described. […] Rate of 7-hydroxycoumarin product formation was measured on spectrofluorometer (Shimadzu, Kyoto, Japan) at λex = 355 nm, λem = 460 nm. […]
Measured Property: IC50 (nM)
Output spec: scalar in nM, unitless text.

What the record says about CC#Cc1ccc(C#CC#CC(O)COC(C)=O)s1 (stereo not drawn) [Thiophene 10] : IC50 is 1150

What the record says about O=c1c(O)c(-c2ccc(O)c(O)c2)oc2cc(O)cc(O)c12 [Quercetin 4, quercetin] : IC50 is 740

What the record says about C=C(CO)C(=O)OC1CC(C)C2(O)CCC(C)(/C=C3/OC(=O)C(COC(C)=O)=C31)O2 (stereo not drawn) [Hirsutinolide 7] : IC50 is 10500

What the record says about O=c1cc(-c2ccc(O)c(O)c2)oc2cc(O)cc(O)c12 [Luteolin 2, luteolin] : IC50 is 170

What the record says about O=c1cc(-c2ccc(O)cc2)oc2cc(O)cc(O)c12 [Apigenin 1, apigenin] : IC50 is 40

What the record says about CC#CC#Cc1ccc(C#CC(O)COC(C)=O)s1 (stereo not drawn) [Thiophene 9] : IC50 is 2290

----------
Target: CYP2A13 (Homo sapiens)
Construct: made in house
Sequence (Q16696 1-494): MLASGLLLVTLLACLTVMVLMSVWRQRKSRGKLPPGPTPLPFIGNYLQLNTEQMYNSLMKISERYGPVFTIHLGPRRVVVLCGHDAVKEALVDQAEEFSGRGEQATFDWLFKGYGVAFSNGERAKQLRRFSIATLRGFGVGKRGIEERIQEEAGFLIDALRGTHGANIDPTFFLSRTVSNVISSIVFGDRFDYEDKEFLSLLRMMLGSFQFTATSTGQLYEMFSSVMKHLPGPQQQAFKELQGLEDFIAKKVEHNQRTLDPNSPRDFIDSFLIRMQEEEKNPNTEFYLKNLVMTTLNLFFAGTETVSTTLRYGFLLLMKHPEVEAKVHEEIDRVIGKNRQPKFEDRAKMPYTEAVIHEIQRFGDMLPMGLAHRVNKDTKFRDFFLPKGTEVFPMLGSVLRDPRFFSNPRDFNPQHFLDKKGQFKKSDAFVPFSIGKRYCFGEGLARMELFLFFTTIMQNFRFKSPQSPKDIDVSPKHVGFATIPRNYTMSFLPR
Assay: Effects of trapping agents and dialysis on inactivation of CYP2A13
Assay type: biochemical
Conditions: CYP2A13 inhibition reaction mixture, probe coumarin, compound 5 µM, read-out: Per cent remaining activity, 70 μM K3Fe(CN)6
So I've got a bunch of molecules here, and I need their activity at 5 µM values.
Output spec: scalar in %, unitless text.

What the record says about CC#Cc1ccc(C#CC#CC(O)COC(C)=O)s1 (stereo not drawn) [Thiophene 10] : activity at 5 µM is 26.9

What the record says about CC#CC#Cc1ccc(C#CC(O)COC(C)=O)s1 (stereo not drawn) [Thiophene 9] : activity at 5 µM is 24.9

What the record says about CC#Cc1ccc(C#CC#CC(O)CO)s1 (stereo not drawn) [Thiophene 11] : activity at 5 µM is 18.9

----------
Target: UniProt:P11509
Assay: Effects of trapping agents and dialysis on inactivation of CYP2A6
Type: biochemical
Design: made in house
Conditions: CYP2A6 inhibition reaction mixture, probe coumarin, compound 5 µM, read-out: Per cent remaining activity, Dialysis (−) NADPH
Measured Property: activity at 5 µM (%)
Output spec: scalar in %, unitless text.

What the record says about CC#CC#Cc1ccc(C#CC(O)COC(C)=O)s1 (stereo not drawn) [Thiophene 9] : activity at 5 µM is 89.3

What the record says about CC#Cc1ccc(C#CC#CC(O)COC(C)=O)s1 (stereo not drawn) [Thiophene 10] : activity at 5 µM is 87.5

What the record says about CC#Cc1ccc(C#CC#CC(O)CO)s1 (stereo not drawn) [Thiophene 11] : activity at 5 µM is 82.4

----------
Biological target: CYP2A13 (Homo sapiens, UniProt Q16696)
Sequence (Q16696 1-494): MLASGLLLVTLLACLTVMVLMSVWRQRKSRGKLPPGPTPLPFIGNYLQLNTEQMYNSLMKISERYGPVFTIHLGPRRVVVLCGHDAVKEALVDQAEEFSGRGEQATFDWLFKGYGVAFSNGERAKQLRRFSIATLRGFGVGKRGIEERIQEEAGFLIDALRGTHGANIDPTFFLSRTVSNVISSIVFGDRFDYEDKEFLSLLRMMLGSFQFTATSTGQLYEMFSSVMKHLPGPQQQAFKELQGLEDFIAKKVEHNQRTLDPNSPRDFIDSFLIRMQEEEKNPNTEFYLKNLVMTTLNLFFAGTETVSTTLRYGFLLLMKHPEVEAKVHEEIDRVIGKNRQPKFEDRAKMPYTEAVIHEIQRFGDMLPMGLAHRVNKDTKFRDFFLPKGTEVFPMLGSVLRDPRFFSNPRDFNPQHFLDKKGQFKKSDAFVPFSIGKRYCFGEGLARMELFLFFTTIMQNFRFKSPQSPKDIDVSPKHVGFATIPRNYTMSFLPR
pKi: −log10 of the molar value.
Returns one of true or false; true when pKi is >= 5.

Exam item: decide whether the reported pKi for CC#CC#Cc1ccc(C#CC(O)COC(C)=O)s1 (stereo not shown) is at least 5.
true

Exam item: decide whether the reported pKi for "O=c1cc(-c2ccc(O)cc2)oc2cc(O)cc(O)c12" is at least 5.
true

Exam item: decide whether the reported pKi for CC#Cc1ccc(C#CC#CC(O)COC(C)=O)s1 (stereo not shown) is at least 5.
true

Exam item: decide whether the reported pKi for CC(=O)OCC1=C2/C(=C\C3(C)CCC(O)(O3)C(C)CC2OC(=O)/C(C)=C/CO)OC1=O (stereo not shown) [Hirsutinolide 8] is at least 5.
false

Exam item: decide whether the reported pKi for C=C(C)C(=O)OC1CC(C)C2(O)CCC(C)(/C=C3/OC(=O)C(COC(C)=O)=C31)O2 (stereo not shown) [Hirsutinolide 5] is at least 5.
true

----------
Target: CYP2A13 (Homo sapiens, UniProt Q16696)
Construct: made in house
Experiment: Effects of trapping agents and dialysis on inactivation of CYP2A13
Type: biochemical
Conditions: CYP2A13 inhibition reaction mixture, probe coumarin, compound 5 µM, read-out: Per cent remaining activity, Dialysis (−) NADPH
Method: MBI requires NADPH and time to generate reactive intermediate as inhibitor and ultimately inactivates the enzyme. MBI was evaluated by pre-incubation with each test inhibitor in the reaction at different time periods (0, 10, 20 and 30 min) in the presence of NADPH for time-dependent assay, as described. The apparent inactivation constants, KI and Kinact, were obtained from double reciprocal plots of kobs versus inhibitor concentrations by linear regression analysis on GraphPad Prism 5. […]
Measured Property: activity at 5 µM
Number first, unit second: that is the form wanted.

# CC#Cc1ccc(C#CC#CC(O)CO)s1 (stereo not drawn) with CYP2A13 (Homo sapiens, UniProt Q16696): activity at 5 µM is 96.8%

# CC#CC#Cc1ccc(C#CC(O)COC(C)=O)s1 (stereo not drawn) with CYP2A13 (Homo sapiens, UniProt Q16696): activity at 5 µM is 85.3%

# CC#Cc1ccc(C#CC#CC(O)COC(C)=O)s1 (stereo not drawn) with CYP2A13 (Homo sapiens, UniProt Q16696): activity at 5 µM is 93%
